# System: Escherichia coli TOP10;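 further: peptides expressed intracellularly from a pBAD plasmid library in pooled LB shake-flask culture, induced with 0.3% L-arabinose, DNA abundance read by NGS, three biological replicates, DESeq2 with apeglm shrinkage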
# protocol-notes: shrunken log2 fold change of peptide-encoding DNA abundance (4.5 h post-induction vs induction); higher = less antimicrobial activity (less host growth inhibition)
# cond: time post-induction: 4.5 h; library: site-saturation at positions 5, 18, 19, 20
Provide the recorded shrunken log2 fold change for the entries that follow.
Answers are plain numbers.

Sample answers from the record:
| record-sequence | attribute-measured | numeric-value |
| --- | --- | --- |
| RRIRKRPPRLPRPRPRPFGNPRP | shrunken log2 fold change | -0.171 |
| RRIRWRPPRLPRPRPRPELMPRP | shrunken log2 fold change | 0.0289 |
| RRIRKRPPRLPRPRPRPNWSPRP | shrunken log2 fold change | 0.139 |

We now examine a further sequence.
So, "RRIRSRPPRLPRPRPRPYPAPRP" ? Its shrunken log2 fold change was -0.559

Sourced from the supplement of paper PMC9112550
